Target: T1, flag-tagged soluble TL3 (amino acids 105-251 of SEQ ID NO:234) (Homo sapiens (Human), UniProt O75888 105-250)
T1 construct: Heterologous flag-tagged control protein, immobilized in the ELISA; also called flagged tagged TL-3; not shown: Flag tag
T1 sequence: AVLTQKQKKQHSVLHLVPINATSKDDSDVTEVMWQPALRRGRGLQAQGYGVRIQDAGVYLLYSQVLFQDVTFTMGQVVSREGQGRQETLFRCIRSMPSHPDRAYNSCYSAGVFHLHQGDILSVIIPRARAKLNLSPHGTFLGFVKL
Assay: phage ELISA on immobilized flag-tagged soluble TL3
TEST_READOUT: binding result

GMBC604 (scFv) scFv: EVQLVQSGAEVKKPGESLRISCKGSGYTFTNYWINWVRQVPGKGLEWMGMIDPTDSYAKYSPSFQGHVTISTDKSVSTAYLQWRSLQASDSAIYYCVRGYSYDLDYWGKGTLVTVSSGGGGSGGGGSGGGGSQSVLTQPASVSGSPGQSITISCTGTSSDVGGYNYVSWYQQHPGKAPKLMIYEGSKRPSGVSNRFSGSKSGNTASLTISGLQAEDEADYYCSSYTTRSTRVFGGGTKLTVLG = no binding
GMBC660 (scFv) scFv: EVQLVQSGGGLVKPGGSLRLSCAASGFIFSDAWMNWVRQAPGKGLEWVGRIKSKGSGGTIDYAAPVKDRFTISRDDSKNTLYLQMNSLKTEDTALYYCTWDWDFYYGMNVWGQGTPVTVSSGGGGSGGGGSGGGGSQSVLTQPASVSGSPGQSITISCTGTSSDVGGYNYVSWYQQHPGKAPKLMIYEGSKRPSGVSNRFSGSKSGNTASLTISGLQAEDEADYYCSSYTTRSTRVFGGGTKLTVLG = no binding
